Data credit: ChEMBL document CHEMBL5303573

Experiment: The drug is tested on Eubacterium hallii strain: DSM3353 for biotransformation. The drug concentrations were measured before and after a 12-h incubation by liquid-chromatography-coupled mass spectrometry (LC–MS)
Settings: anaerobutyricum hallii, 2 µM
Non-standard residues stand in square brackets, D forms with d. Residues, ends and D or L forms follow the SMILES beside them. pGlu = O=C1CC[C@@H](C(=O)O)N1; Thz = O=C(O)[C@@H]1CSCN1
endpoint name: Bacterial Biotransformation

[[record]]
molecule = "COc1ccc2[nH]c([S+]([O-])Cc3ncc(C)c(OC)c3C)nc2c1 (stereo unspecified) [OMEPRAZOLE]"
result = "Compound metabolized"

[[record]]
molecule = "COc1cc2nc(N(C)CCCNC(=O)C3CCCO3)nc(N)c2cc1OC (stereo unspecified) [ALFUZOSIN]"
result = "Compound NOT metabolized"

[[record]]
molecule = "O=c1n(CCCN2CCN(c3cccc(Cl)c3)CC2)nc2ccccn12 [TRAZODONE]"
result = "Compound NOT metabolized"

[[record]]
molecule = "Nc1c2c(nc3ccccc13)CCCC2 [TACRINE]"
result = "Compound NOT metabolized"

[[record]]
molecule = "Fc1ccc([C@@H]2CCNC[C@H]2COc2ccc3c(c2)OCO3)cc1 [PAROXETINE]"
result = "Compound NOT metabolized"


Measured Bacterial Biotransformation, CC(=O)O[C@]1(C(C)=O)CC[C@H]2[C@@H]3C=C(Cl)C4=CC(=O)[C@@H]5C[C@@H]5[C@]4(C)[C@H]3CC[C@@]21C [CYPROTERONE ACETATE] : Compound NOT metabolized

Measured Bacterial Biotransformation, CCOc1ccccc1OCCN[C@H](C)Cc1ccc(OC)c(S(N)(=O)=O)c1.Cl [TAMSULOSIN HYDROCHLORIDE] : Compound NOT metabolized

Measured Bacterial Biotransformation, CN1CCN(C(=O)O[C@H]2c3nccnc3C(=O)N2c2ccc(Cl)cn2)CC1 [ESZOPICLONE] : Compound metabolized

Measured Bacterial Biotransformation, COc1ccc2[nH]c([S+]([O-])Cc3ncc(C)c(OC)c3C)nc2n1 (stereo unspecified) [TENATOPRAZOLE] : Compound metabolized

Measured Bacterial Biotransformation, O=C1[C@H](CC[C@H](O)c2ccc(F)cc2)[C@@H](c2ccc(O)cc2)N1c1ccc(F)cc1 [EZETIMIBE] : Compound NOT metabolized

Measured Bacterial Biotransformation, CC(=O)OCC(=O)[C@@]12N=C(C)O[C@@H]1C[C@H]1[C@@H]3CCC4=CC(=O)C=C[C@]4(C)[C@H]3[C@@H](O)C[C@@]12C [DEFLAZACORT] : Compound metabolized

Measured Bacterial Biotransformation, CCN(CC)CCOC(=O)C1(C2CCCCC2)CCCCC1 [DICYCLOMINE] : Compound NOT metabolized

Measured Bacterial Biotransformation, O=C(CCCN1CCC(O)(c2ccc(Cl)cc2)CC1)c1ccc(F)cc1 [HALOPERIDOL] : Compound NOT metabolized

Measured Bacterial Biotransformation, COC(=O)C(c1ccccc1)C1CCCCN1 (stereo unspecified) [METHYLPHENIDATE] : Compound NOT metabolized

Measured Bacterial Biotransformation, CC[C@H](C)C(=O)O[C@H]1CCC=C2C=C[C@H](C)[C@H](CC[C@@H]3C[C@@H](O)CC(=O)O3)[C@H]21 [MEVASTATIN] : Compound metabolized

Measured Bacterial Biotransformation, COc1cc2nc(N3CCN(C(=O)c4ccco4)CC3)nc(N)c2cc1OC [PRAZOSIN] : Compound NOT metabolized

Measured Bacterial Biotransformation, O=C1CC[C@@H](C(=O)N2CSC[C@H]2C(=O)O)N1 [PIDOTIMOD] ([pGlu]-[Thz]-OH) : Compound NOT metabolized

Measured Bacterial Biotransformation, COc1c(C)c2c(c(O)c1C/C=C(\C)CCC(=O)OCCN1CCOCC1)C(=O)OC2 [MYCOPHENOLATE MOFETIL] : Compound metabolized

Measured Bacterial Biotransformation, N#Cc1ccc(C(c2ccc(C#N)cc2)n2cncn2)cc1 [LETROZOLE] : Compound NOT metabolized

Measured Bacterial Biotransformation, CC#C[C@]1(O)CC[C@H]2[C@@H]3CCC4=CC(=O)CCC4=C3[C@@H](c3ccc(N(C)C)cc3)C[C@@]21C [MIFEPRISTONE] : Compound NOT metabolized

Measured Bacterial Biotransformation, Cc1ccccc1N1C(=O)c2cc(S(N)(=O)=O)c(Cl)cc2NC1C (stereo unspecified) [METOLAZONE] : Compound NOT metabolized

Measured Bacterial Biotransformation, CNC(=C[N+](=O)[O-])NCCSCc1csc(CN(C)C)n1 [NIZATIDINE] : Compound metabolized

Measured Bacterial Biotransformation, CCN(CC)CCOC(=O)C(Cc1cccc2ccccc12)CC1CCCO1.O=C(O)C(=O)O (stereo unspecified) [NAFRONYL OXALATE] : Compound NOT metabolized

Measured Bacterial Biotransformation, CCOc1ccc(NC(C)=O)cc1 [PHENACETIN] : Compound NOT metabolized

Measured Bacterial Biotransformation, CCCC(=O)Nc1ccc(OCC(O)CNC(C)C)c(C(C)=O)c1 (stereo unspecified) [ACEBUTOLOL] : Compound NOT metabolized
